Read-out: Cellular tumor antigen p53 (Homo sapiens)
Assay: LTEA_HepaRG_TP53: Life Technologies and Expression Analysis (LTEA) Assay for Tumor Protein P53 (TP53) using HepaRG (AID 2283537)
Conditions: mRNA level, 48 h; actives raise or lower the signal
Calls of active or inactive are those of the source. How the source made its calls: active means hit-call score of the fitted dose curve at least 0.9, where 1 is the maximum; inactive means score below 0.9.
assay.readout: AC50

>  <molecule>
CC[C@H](C)[C@H]1O[C@]2(C=C[C@@H]1C)C[C@@H]1C[C@@H](C/C=C(\C)[C@@H](O[C@H]3C[C@H](OC)[C@@H](O[C@H]4C[C@H](OC)[C@@H](O)[C@H](C)O4)[C@H](C)O3)[C@@H](C)/C=C/C=C3\CO[C@@H]4[C@H](O)C(C)=C[C@@H](C(=O)O1)[C@]34O)O2 (tested in a mixture with another compound)

>  <recorded.result>
6.99 µM (active)

$$$$
>  <molecule>
O=C1c2ccccc2C(=O)N1SC(Cl)(Cl)Cl

>  <recorded.result>
inactive

$$$$
>  <molecule>
O=S1OCC2C(CO1)C1(Cl)C(Cl)=C(Cl)C2(Cl)C1(Cl)Cl (centres undefined)

>  <recorded.result>
70.2 µM (active)

$$$$
>  <molecule>
COc1nn(CSP(=S)(OC)OC)c(=O)s1

>  <recorded.result>
inactive

$$$$

====

Test: BSK_hDFCGF_SRB: Viability Assessment in the BioMAP Diversity Plus: hDFCGF Assay (AID 2283061);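 further: cells exposed to compound for 24 h before the read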
Settings: primary human foreskin fibroblasts
Calls of active or inactive are those of the source. The calls were made as follows: active = hit-call score of the fitted dose curve at least 0.9, where 1 is the maximum; inactive = score below 0.9.
Just give me one of these, please: 1.0 = active, 0.0 = inactive

Look over these answered cases.
>  <compound>
CCc1ccc(C(=O)NN(C(=O)c2cc(C)cc(C)c2)C(C)(C)C)cc1

>  <label.value>
0.0

$$$$
>  <compound>
Cc1[nH]c(=O)n(C(C)(C)C)c(=O)c1Cl

>  <label.value>
0.0

$$$$
>  <compound>
CCC(C)Nc1c([N+](=O)[O-])cc(C(C)(C)C)cc1[N+](=O)[O-] (configuration not stated)

>  <label.value>
1.0

$$$$
>  <compound>
COP(=O)(OC)OC=C(Cl)Cl

>  <label.value>
0.0

$$$$

**Query** Hello, I am checking results. What call was entered for [2H]C1([2H])[n+]2ccccc2-c2cccc[n+]2C1([2H])[2H] ?
**Result** 0.0

**Query** Hello, I am checking results. What call was entered for CCC(C)(NC(=O)c1cc(Cl)c(C)c(Cl)c1)C(=O)CCl (configuration not stated) ?
**Result** 1.0

**Query** Hello, I am checking results. What call was entered for CC1(C)C(C=C(Cl)Cl)C1C(=O)OC(C#N)c1ccc(F)c(Oc2ccccc2)c1 (configuration not stated) ?
**Result** 1.0

====

Target: Luciferin 4-monooxygenase (Photinus pyralis) (UniProt P08659)
Sequence (P08659 whole entry, looked up): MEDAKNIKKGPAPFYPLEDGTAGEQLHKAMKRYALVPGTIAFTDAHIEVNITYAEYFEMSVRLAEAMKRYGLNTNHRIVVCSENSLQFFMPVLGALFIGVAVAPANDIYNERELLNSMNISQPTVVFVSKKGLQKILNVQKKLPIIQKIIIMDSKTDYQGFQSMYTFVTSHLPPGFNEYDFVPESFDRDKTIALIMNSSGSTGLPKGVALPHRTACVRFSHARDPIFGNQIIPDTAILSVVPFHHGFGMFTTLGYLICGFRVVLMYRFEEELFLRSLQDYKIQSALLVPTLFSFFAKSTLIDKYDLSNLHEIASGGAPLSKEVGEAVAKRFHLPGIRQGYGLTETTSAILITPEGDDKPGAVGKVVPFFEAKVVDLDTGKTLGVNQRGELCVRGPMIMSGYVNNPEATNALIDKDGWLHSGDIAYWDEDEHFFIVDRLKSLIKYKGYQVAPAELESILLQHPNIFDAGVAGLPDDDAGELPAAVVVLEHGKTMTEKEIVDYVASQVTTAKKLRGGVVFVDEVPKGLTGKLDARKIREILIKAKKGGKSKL
Experiment: CCTE_Simmons_QuantiLum_inhib_2: CCTE's Firefly Luciferase Inhibition Assay, Simmons Lab (AID 2283767);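 on AC50: potency for inhibitors that lower luciferase luminescence relative to DMSO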
Results filed as inconclusive are left out. Calls of active or inactive are those of the source. Rule for the calls: active = hit-call score of the fitted dose curve at least 0.9, where 1 is the maximum; inconclusive = response in the unintended direction; inactive = score below 0.9.
assay.readout: AC50

>  <chemical.smiles>
Oc1cc(Cl)ccc1Oc1ccc(Cl)cc1Cl

>  <assay.readout>
AC50

>  <recorded.result>
inactive

$$$$
>  <chemical.smiles>
CNC(=O)Oc1cccc(N=CN(C)C)c1

>  <assay.readout>
AC50

>  <recorded.result>
inactive

$$$$
>  <chemical.smiles>
Oc1ccc(Cl)cc1Cc1ccccc1

>  <assay.readout>
AC50

>  <recorded.result>
inactive

$$$$
>  <chemical.smiles>
COc1nn(CSP(=S)(OC)OC)c(=O)s1

>  <assay.readout>
AC50

>  <recorded.result>
inactive

$$$$

Pending molecule:
**Query** Any idea what AC50 was measured for CNC(=O)CSP(=S)(OC)OC ?
**Result** 34.2 µM (active)
